Where do these numbers come from? They come from patent US9512075B2.

Tested on: Escherichia coli K-12 strain
Assay: MIC for Escherichia coli K-12 strain
Format: cell-based
Conditions: Escherichia coli, K12STRAIN; K-12 strain; regular bouillon medium, 37° C. overnight, turbidity; read-out: MIC Escherichia coli K12
MIC listing for selected compounds.
recorded-metric: MIC (µg/mL)

- CCCCCCCCCC(=O)NCC(O)=C1C(=O)N(C(=O)OC(C)(C)C)c2ccccc21: 128
- CCCCCCCCCC(=O)N1C(=O)C(=C(O)c2ccccc2O)c2ccccc21: 128
- CCCCCCCCCCOCC(O)=C1C(=O)N(C(=O)Nc2ccc(OC)cc2)c2ccccc21: 128
- CC(C)[C@H]1CC[C@H](C)CC1OCC(=O)c1c(O)c2ccccc2oc1=O (stereo in doubt) [B006, 4-hydroxy-3-menthyloxyacetylcoumarin]: 128
- CCCCCCCCCCCCNC(=O)c1c(O)c2ccccc2oc1=O: 256
- CCCCCCCCCC(=O)N1C(=O)C(=C(C)O)c2ccccc21: 128
- CCCCCCCCCCOCC(=O)c1c(O)c2cc(F)ccc2oc1=O: 256
- CCCCCCCCCC(O)=C1C(=O)N(C(=O)Nc2ccc(F)cc2)c2ccccc21: 256
- CCCCCCCCCCOCC(O)=C1C(=O)N(C(C)=O)c2ccc(Br)cc21: 128
- CCCCC1CCC(C(O)=C2C(=O)N(C(C)=O)c3ccccc32)CC1 (centres unmarked): 256
- CCCCCCCCNC(=O)c1c(O)c2ccccc2oc1=O [B020, 3-(octylaminocarbonyl)-4-hydroxycoumarin]: 64
- CCCCCCCCCC(O)=C1C(=O)N(C(=O)Nc2ccc(OC)cc2)c2ccc(F)cc21: 256
- CCCCCCCCCCSCC(O)=C1C(=O)N(C(C)=O)c2ccc(Br)cc21: 256
- CCCCCCCCCCOCC(O)=C1C(=O)N(C(C)=O)c2ccc(F)cc21: 128
- O=C(Nc1ccccc1)N1C(=O)C(=C(O)CCCCCCCCCBr)c2ccccc21: 256
- CCCCC1CCC(C(O)=C2C(=O)N(C(=O)OC(C)(C)C)c3cc(Cl)ccc32)CC1 (centres unmarked): 128
- CCCCC1CCC(C(O)=C2C(=O)N(C(=O)Nc3ccccc3)c3ccc(Br)cc32)CC1 (centres unmarked): 128
